Target: Human GLP-1 receptor (Homo sapiens, UniProt P43220)
Construct: expressed in transfected cells
Sequence (P43220 24-463): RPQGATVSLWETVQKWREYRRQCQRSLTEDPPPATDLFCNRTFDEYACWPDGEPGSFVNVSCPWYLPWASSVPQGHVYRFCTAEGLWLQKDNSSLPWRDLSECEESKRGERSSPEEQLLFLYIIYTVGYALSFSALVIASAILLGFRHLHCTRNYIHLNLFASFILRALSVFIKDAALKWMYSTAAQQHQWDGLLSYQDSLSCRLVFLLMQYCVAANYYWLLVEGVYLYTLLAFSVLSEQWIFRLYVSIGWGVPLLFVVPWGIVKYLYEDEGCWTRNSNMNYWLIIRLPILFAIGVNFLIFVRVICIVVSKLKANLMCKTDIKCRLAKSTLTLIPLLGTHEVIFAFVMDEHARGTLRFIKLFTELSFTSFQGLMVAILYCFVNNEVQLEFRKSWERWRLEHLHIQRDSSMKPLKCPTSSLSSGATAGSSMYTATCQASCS
Assay: Measurement of GLP-1 receptor agonist activity (cAMP assay)
Type: cell-based
Conditions: CHO-K1, maximum effect, cAMP increase in GLP-1 R/CHO-K1 cells; 2 nM human GLP-1 (7-36) = 100%, DMSO only = 0%; read-out: Emax
observable: Emax
Reply with a number, then the unit it belongs to.

Example results:
The reported value for `COc1cc(C(=O)O)cc2c1nc(CN1CCc3cc(C(F)(F)F)c(OCc4c(F)cc(F)cc4F)cc3[C@@H]1C)n2C[C@@H]1CCO1` in terms of Emax is 106%

The reported value for `O=C(O)c1ccc2nc(CN3CCc4cc(C(F)(F)F)c(OCc5ccc(OC(F)F)cc5F)nc4C3)n(C[C@@H]3CCO3)c2c1` in terms of Emax is 116%

The reported value for `C[C@H]1c2nc(OCc3ccc(C4CC4)cc3)c(C(F)(F)F)cc2CCN1Cc1nc2ccc(C(=O)O)nc2n1C[C@@H]1CCO1` in terms of Emax is 117%

More entries:
The reported value for `C[C@H]1c2nc(OCc3c(F)cc(Cl)cc3F)c(C(F)(F)F)cc2CCN1Cc1nc2ccc(C(=O)O)cc2n1C[C@@H]1CCO1` in terms of Emax is 134%

The reported value for `O=C(O)c1cc(F)c2nc(CN3CCc4cc(C(F)(F)F)c(OCc5ccc(Cl)cc5Cl)nc4C3)n(C[C@@H]3CCO3)c2c1` in terms of Emax is 114%

The reported value for `C[C@H]1c2cc(OCc3c(F)cc(Cl)cc3F)c(Cl)cc2CCN1Cc1nc2ccc(C(=O)O)c(F)c2n1C[C@@H]1CCO1` in terms of Emax is 96.7%
